Reference source for all entries: the RNAGym collection of RNA variant scans (doi:10.1073/pnas.2313332121)

B1: TPR t1 (parent)
chain: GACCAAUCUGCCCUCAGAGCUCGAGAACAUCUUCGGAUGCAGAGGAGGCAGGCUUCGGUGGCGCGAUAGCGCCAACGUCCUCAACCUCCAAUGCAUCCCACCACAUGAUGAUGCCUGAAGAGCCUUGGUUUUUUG

Variants of: B1
Assay text: polymerase ribozyme fitness, log enrichment relative to wild type (log ratio); higher = more active; in vitro selection for triplet polymerase activity
Measured property: polymerase ribozyme fitness (log ratio)

GACCAAUCUGCCCUCAGCGCUCGAGAACAUCUUCGGAUGCAGAGGAGGCAGGCUUCGGUGGCGCGAUAGCGCCAACGUCCUCAACCUCCAAUGCAUCCCACCACAUGAUAAUGCCUGAAGAGCCUUGGUUUUUUG :: -3.98
GACCAAUCUGCCCUCAGAGCUCGAGAACAUCUUCGGAUGCAUAGGAGGCAGGUUUCGGUGGUGCGAUAGCGCCAACGUCCUCAACCUCCAAUGCAUCCCACCACAUGAUAAUGCCUGAAGAGCCUUGGUUUUUUG :: -3.9
GACCAUUCUGCCCUCAGAGCUCGAGAACAUCUUCGGAUGCAGAGGAGGCAGGCUUCGGUGGCGCGAUAGCGCCAACGUCCUCAACCUCCAAUGCAUCCCACCACAGGAUGAUCCCUGAAGAGCCUUGGUUUUUUG :: -3.9

Lookup: Which measured polymerase ribozyme fitness (log ratio) value corresponds to "GACCAAUCUGCCCUCAGAGCUCCAGGACAUCUUCGGAUGCAGAGGAGGCAGGCUUCGGUGGCGCGAUAGCGCCAACGUCCUUAACCUCCAAUGCAUCCCACCACAUGAUGAUGCCUGAACAGCCUUGGUUUUUUG" ?
Found: -4.02
